- system-name: DUX4 DNA-binding domain (DUX4-HD, both homeodomains) (UniProt Q9UBX2 19-152)
- Sequence (Q9UBX2 19-152): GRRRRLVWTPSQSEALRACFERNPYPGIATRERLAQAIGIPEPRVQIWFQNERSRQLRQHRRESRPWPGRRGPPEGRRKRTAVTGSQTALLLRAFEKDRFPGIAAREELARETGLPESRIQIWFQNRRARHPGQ
- assay-summary: EMSA; excess protein; Direct EMSA: 10 uL 100 uM probe + 20 uL 250 uM protein (protein stock in 500 mM NaCl, 20 mM Tris-Cl pH 7.4), 1 h on ice, 3% agarose, EtBr; competition: 10 uL 100 uM competitor, 2 uL 125 uM protein (50% glycerol, 250 mM NaCl, 10 mM Tris-Cl pH 7.4), 2 uL 100 uM FAM-CT, 30 uL total, 1 h on ice
- condition-parameters: protein: recombinant; tags: N-terminal His6 removed by TEV (first construct); His-SUMO fusion (later construct); blunt
quantity-kind: binding result

{"binder": "Pitx1-25 (dsDNA) DNA 1: GGCAGTCTTCTAATTAGTAGTCGGC DNA 2: GCCGACTACTAATTAGAAGACTGCC", "result-value": "no binding"}
{"binder": "MALR (dsDNA) DNA 1: GGCAGTCTAATTGAATCAAGTCGGC DNA 2: GCCGACTTGATTCAATTAGACTGCC", "result-value": "binds"}
{"binder": "DUX4(half) (dsDNA) DNA 1: GGCAGTCCAGCGTAATCAAGTCGGC DNA 2: GCCGACTTGATTACGCTGGACTGCC", "result-value": "no binding"}
{"binder": "SELEX4 (dsDNA) DNA 1: GGCAGTCTAATGTTTTATAGTCGGC DNA 2: GCCGACTATAAAACATTAGACTGCC", "result-value": "no binding"}
